Tested on: Liver
Assay: Metabolic stability in mouse liver microsomes
Format: ADME, Microsome
Reported Endpoint: Stability (nmol/min/mg)

# annotated cases, reported Stability shown
CCC[C@H](C(N)=O)N(Cc1ccc(OC)c(F)c1)S(=O)(=O)c1ccc(Cl)cc1	0.3
COc1ccc(CN([C@@H]2CCCCNC2=O)S(=O)(=O)c2ccc(Cl)cc2)cc1	0.22

[I] NC(=O)[C@@H](CC1CC1)N(Cc1ccc(C(F)(F)F)cc1)S(=O)(=O)c1ccc(Cl)cc1
[II] N#Cc1ccc(CN([C@H](CC2CC2)C(N)=O)S(=O)(=O)c2ccc(Cl)cc2)cc1
Smaller Stability value? Options are I and II Kindly give the label for the entry you pick. II
(II: 0.17 nmol/min/mg, I: 0.27 nmol/min/mg)

* * *

Experiment: Plasma concentration in Tg2576 mouse at 200 umol/kg, po measured at 180 mins
Format: ADME, organism-based
Reported Endpoint: concentration at 3 h (nM)

NC(=O)[C@@H](CC1CC1)N(Cc1ccc(C(F)(F)F)cc1)S(=O)(=O)c1ccc(Cl)cc1	3600

[I] CCC[C@H](C(N)=O)N(Cc1ccc(OC)c(F)c1)S(=O)(=O)c1ccc(Cl)cc1
[II] N#Cc1ccc(CN([C@H](CC2CC2)C(N)=O)S(=O)(=O)c2ccc(Cl)cc2)cc1
[III] COc1ccc(CN([C@@H]2CCCCNC2=O)S(=O)(=O)c2ccc(Cl)cc2)cc1
Arrange these compounds by their concentration at 3 h, starting with the largest number. Answer format: the labels, in the requested order. II, I, III

* * *

Test: Inhibition of gamma-secretase-mediated amyloid beta42 production by GS H4-8 SW1-42 assay
Conditions: read-out: IC50
Reported Endpoint: IC50 (nM)

# annotated cases, reported IC50 shown
COc1ccc(CN([C@H](CC(C)C)C(N)=O)S(=O)(=O)c2cccc(C)c2)cc1F	9.2
CC(C)C[C@H](C(=O)NN)N(Cc1ccc(C(F)(F)F)cc1)S(=O)(=O)c1ccc(Cl)cc1	110
CCC[C@H](C(N)=O)N(Cc1ccc(OC)c(F)c1)S(=O)(=O)c1ccc(Cl)cc1	0.52
CC(C)C[C@H](C(N)=O)N(Cc1ccc(N(C)C)cc1)S(=O)(=O)c1ccc(Cl)cc1	0.27

[1] COc1ccc(CN([C@H](CC(C)C)C(N)=O)S(=O)(=O)c2ccc(F)cc2)cc1F
[2] COc1ccccc1CN([C@H](CC(C)C)C(N)=O)S(=O)(=O)c1ccc(Cl)cc1
Smaller IC50 value? Options are 1 and 2 Kindly give the label for the entry you pick. 1
(1: 0.26 nM, 2: 23 nM)

[A] COc1ccc(CN([C@H](CC(C)C)C(N)=O)S(=O)(=O)c2ccc(C)cc2)cc1F
[B] CCCC[C@H](C(N)=O)N(Cc1ccc(C#N)cc1)S(=O)(=O)c1ccc(Cl)cc1
Smaller IC50 value? Options are A and B Kindly give the label for the entry you pick. A
(A: 0.45 nM, B: 1 nM)

* * *

Assay: Inhibition of gamma-secretase
Reported Endpoint: pIC50
Just the number, please; pIC50 means minus log10 of the concentration in mol/L.

Record request: pIC50 value, item NC(=O)[C@@H](CCC(F)(F)F)N(Cc1ccc(-c2ncon2)cc1F)S(=O)(=O)c1ccc(Cl)cc1 9.52

* * *

Test: Drug uptake in Tg2576 mouse brain at 200 umol/kg, po measured at 180 mins
Type: ADME, organism-based
Conditions: read-out: Drug uptake
Reported Endpoint: concentration at 3 h (nM)

COc1ccc(CN([C@@H]2CCCCNC2=O)S(=O)(=O)c2ccc(Cl)cc2)cc1	2200

[A] N#Cc1ccc(CN([C@H](CC2CC2)C(N)=O)S(=O)(=O)c2ccc(Cl)cc2)cc1
[B] CCC[C@H](C(N)=O)N(Cc1ccc(OC)c(F)c1)S(=O)(=O)c1ccc(Cl)cc1
[C] NC(=O)[C@@H](CC1CC1)N(Cc1ccc(C(F)(F)F)cc1)S(=O)(=O)c1ccc(Cl)cc1
Put these in order: smallest concentration at 3 h first, largest last. Answer format: the labels, in the requested order. B, A, C
